# Test system: Chordin-like protein 2 (CHRDL2)
# TEST PROTOCOL: CHRDL2 small-molecule binders, primary screen, biochemical, small-molecule microarray, 635 nm fluorescence (AID 1126);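 note: printed compound slides probed with Chrdl2 protein at 4 µg/mL for 1 h at 4 C; score merges 667 nm emission intensity with signal to noise over three replicate slides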
# MEASUREMENT CONTEXT: small-molecule microarray binding, fluorescence 635 nm; higher = more signal
Think of 0.4 as a floor: if composite z-score stands on it or above, it is 1; beneath it, -1.

Previously resolved entries follow.
COMPOUND: C=CCN1C(=O)[C@@]2(Cc3ccccc3)N=C(c3ccc(OCCCO)cc3)O[C@H]2c2ccccc21
ASSIGNED LABEL: 1
--
COMPOUND: COc1ccc([Si](C)(C)[C@@H]2[C@@H](CC(=O)N(CCO)Cc3ccccc3)O[C@]3(C(=O)N(Cc4cccc(N5CCC5=O)c4)c4ccccc43)[C@H]2C)cc1
ASSIGNED LABEL: 1
--
COMPOUND: CCN1C(C)=C(C(=O)OC)[C@@H](c2ccccc2)N2C(=O)[C@@]3(C(=O)OC)O[C@@]12[C@@H]1C(=O)N(c2ccccc2)C(=O)[C@@H]13
ASSIGNED LABEL: 1
--
COMPOUND: C=C[C@H](OC)[C@@H](OC(=O)Nc1ccc(SC)cc1)c1ccc(O)c(F)c1
ASSIGNED LABEL: -1
--
COMPOUND: CC(C)(C)OC(=O)CC[C@]1(C(=O)NCCN2CCOCC2)N=C(c2ccc(OCCCO)cc2)O[C@H]1c1ccccc1CN=[N+]=[N-]
ASSIGNED LABEL: -1
--
COMPOUND: C[C@@H]1CC[C@H]2C(=O)N3CCC[C@H]3C(=O)N2[C@H]1c1ccc(Br)cc1
ASSIGNED LABEL: 1
--
COMPOUND: NC(=O)NCC#Cc1ccc2c(c1)[C@]1(C(=O)N2)[C@H](c2ccccc2OCCO)N2[C@H](c3ccccc3)[C@H](c3ccccc3)OC(=O)[C@H]2[C@@H]1C(=O)N1CCN(c2ncccn2)CC1
ASSIGNED LABEL: -1
--
COMPOUND: CCC(=O)[C@]12O[C@@]3([C@@H]4C(=O)OCC[C@@H]41)N(Cc1ccccc1)C(C)=C(C(=O)OC)[C@@H](c1ccccc1)N3C2=O
ASSIGNED LABEL: -1
--
COMPOUND: CSCC[C@@H]1NC(=O)CC=C[C@@H](C)COC(=O)[C@H](CCSC)NC(=O)CC=C[C@@H](C)COC1=O
ASSIGNED LABEL: 1
--
COMPOUND: O=C(CS)NCCCCCNC(=O)[C@H]1C[C@H]2C(=O)N3CCC[C@H]3C(=O)N2[C@H]1c1ccc(O)cc1
ASSIGNED LABEL: 1

Turning now to a further compound:
Confirm if composite z-score reported for the compound O=C(NCc1ccccc1)c1ccc(Br)cc1[N+](=O)[O-] is 0.4 or above. 1

----------
# TESTED ON: Homeobox protein Hox-A13 (Mus musculus) (UniProt Q62424)
# Sequence (Q62424 whole entry, looked up): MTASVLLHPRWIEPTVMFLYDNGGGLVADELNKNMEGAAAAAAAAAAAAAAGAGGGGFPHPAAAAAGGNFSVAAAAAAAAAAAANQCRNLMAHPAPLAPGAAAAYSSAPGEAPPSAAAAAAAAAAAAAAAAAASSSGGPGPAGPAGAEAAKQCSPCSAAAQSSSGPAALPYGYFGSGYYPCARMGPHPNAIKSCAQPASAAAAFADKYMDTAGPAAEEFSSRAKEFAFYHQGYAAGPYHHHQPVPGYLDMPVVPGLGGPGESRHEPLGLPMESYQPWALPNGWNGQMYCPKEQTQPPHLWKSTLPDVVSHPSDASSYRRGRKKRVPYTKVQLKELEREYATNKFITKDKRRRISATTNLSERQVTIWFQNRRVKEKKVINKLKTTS
# TEST PROTOCOL: inhibitors of HoxA13-DNA binding, primary screen, biochemical, fluorescence polarization, labeled oligonucleotide (AID 1185)
# MEASUREMENT CONTEXT: 15 min, higher = more signal, called active from +8 up or from −8 down
Here the recorded z-score is given for each entry.
// return a plain number; no unit text

COMPOUND: C=CCOC(=O)[C@@H]1[C@H]2C(=O)O[C@H](c3ccccc3)[C@H](c3ccccc3)N2[C@H](c2ccc(OCCOC(=O)[C@H]3C[C@H]4C(=O)N[C@@H](CCCCNC(C)=O)C(=O)N4[C@H]3c3ccc(O)cc3)cc2)[C@@]12C(=O)Nc1ccc(I)cc12
z-score: 0.32

Form field: reported z-score of CCCCCCc1nc(C2CC2)c(C)c2c1[Si](C(C)C)(C(C)C)OC2 2.65

Need z-score of O=C1C2C=CC(C(O)Cc3ccccc3)N(Nc3ccc([N+](=O)[O-])cc3)C2C(=O)N1c1ccccc1 (stereo not given) , thanks. -5.69

Given CO[C@H]1COC(=O)[C@H](C)NC(=O)CC=C[C@@H](C)[C@H](NS(=O)(=O)c2ccc(C)cc2)COC(=O)CC=C[C@@H]1C , state its recorded z-score. -1.62

Look up z-score: CC1CC/C=C\[C@H]2OC34C=CCN(Cn5nnc6ccccc65)C(=O)[C@H]3N(C(C)CO)C(=O)[C@@H]4C2C(=O)O1 (stereo not given in full) -4.29

# z-score lookup, item C=CCC(OC(C)=O)[C@@H]1[C@@H](N(Cc2ccc(-c3ccccc3)cc2)C(=O)c2ccc(C)cc2)c2cc(OCCCO)ccc2N1C(=O)c1ccc(-c2ccccc2)cc1 (stereo not given in full) -1.35

Fill blank: measured z-score of the compound CO[C@H]1COC(=O)CC=C[C@H](C)COC(=O)[C@@H](OCc2ccccc2)C=C[C@@H]1C is ____. 1.89

For the compound C=C[C@H](OC)[C@@H](OC(=O)Nc1ccc(SC)cc1)c1ccc(OC)c(O)c1 , what z-score is on record? -2.82

Any idea what z-score was measured for COC(=O)Cn1c(C(=O)N2CCCC2)cc2c1C[C@H]1CN(C(=O)c3ccccc3)[C@@](Cc3ccccc3)(C(=O)OC)[C@@H]21 ? -4.99

Any idea what z-score was measured for CCN1C(C)=C(C(=O)OC)[C@@H](c2ccccc2)N2C(=O)[C@](O)(C(=O)OC)[C@@H](c3ccccc3)C(C(=O)c3ccccc3)=C12 ? -4.23
